Is glass transition temperature at least 200 °C? Then True. If not, False.

Q: Hello, I need to know if *C1C(*)C2CC1C1C=CCC12 (repeat unit) has measured glass transition temperature not below 200 °C. Thanks!
A: False

Q: Hello, I need to know if *CC(*)(C)C(=O)OCC(=O)N1CCOCC1 (repeat unit) has measured glass transition temperature not below 200 °C. Thanks!
A: False

Q: Hello, I need to know if */C(OC)=C(\OC)c1ccc(*)s1 (repeat unit) has measured glass transition temperature not below 200 °C. Thanks!
A: False

Q: Hello, I need to know if *Oc1ccc(S(=O)(=O)c2ccc(Oc3ccc(-c4ccc(*)cc4)cc3)cc2)cc1 (repeat unit) has measured glass transition temperature not below 200 °C. Thanks!
A: True

* * *

What glass transition temperature was measured for each of the following?
Expressed in °C, but write only the number.

Q: Please report the recorded glass transition temperature for *c1ccc(Oc2ccc(Oc3ccc(N4C(=O)c5ccc(-c6ccc7c(c6)C(=O)N(*)C7=O)cc5C4=O)cc3)c(C)c2)cc1 (repeat unit) .
A: 265.00

Q: Please report the recorded glass transition temperature for *CC(*)(C)C(=O)OC(COc1ccc(-c2ccccc2)cc1)COc1ccc(-c2ccccc2)cc1 (repeat unit) .
A: 85.00

Q: Please report the recorded glass transition temperature for *CCCCCCOc1ccc(/C=C2\CC/C(=C\c3ccc(OCCCCCCOP(=O)(O*)OCC)c(OC)c3)C2=O)cc1OC (repeat unit) .
A: 75.00

Q: Please report the recorded glass transition temperature for *c1ccc(-c2ccc(-n3c(=O)c4cc5c(=O)n(*)c(=O)c5cc4c3=O)cc2OC)c(OC)c1 (repeat unit) .
A: 328.00

Q: Please report the recorded glass transition temperature for *Oc1ccc(C(C)(C)c2ccc(OC(=O)c3ccc(S(=O)(=O)c4ccc(C(*)=O)cc4)cc3)cc2)cc1 (repeat unit) .
A: 220.00

Q: Please report the recorded glass transition temperature for *c1cc(CCCCCC)c(-c2ccc3c4ccc(-c5sc(-c6sc(*)c7nc(CC)c(CC)nc67)cc5CCCCCC)cc4n(CCCCCCCCCCCC)c3c2)s1 (repeat unit) .
A: 89.00

Q: Please report the recorded glass transition temperature for *Oc1ccc(OC(=O)c2ccc(C(*)=O)cc2Sc2ccccc2)cc1-c1ccccc1 (repeat unit) .
A: 130.00

* * *

Binarize glass transition temperature at 80 °C; below is criterion met, at or above is criterion not met.

Q: Please let me know if *CCCCCCCCCCCN1C(=O)c2ccc(C(=O)Oc3ccc(-c4ccc(OC(=O)c5ccc6c(c5)C(=O)N(*)C6=O)cc4)cc3)cc2C1=O (repeat unit) shows glass transition temperature below 80 °C.
A: criterion not met

Q: Please let me know if *COC(=O)Nc1ccc(Cc2ccc(NC(=O)OCc3cocc3*)cc2)cc1 (repeat unit) shows glass transition temperature below 80 °C.
A: criterion met

Q: Please let me know if *CCCCCCCCCCCNC(=O)CCCCCCCCCCCCCCCCCCC(=O)N* (repeat unit) shows glass transition temperature below 80 °C.
A: criterion met

Q: Please let me know if *CC(C)(CC)COC(=O)CCCCCCCCC(=O)O* (repeat unit) shows glass transition temperature below 80 °C.
A: criterion met

Q: Please let me know if *CCCCCOC(=O)OCCCCCN1C(=O)c2ccc(C(=O)c3ccc4c(c3)C(=O)N(*)C4=O)cc2C1=O (repeat unit) shows glass transition temperature below 80 °C.
A: criterion met
